Test system: U-266 (Plasma Cell Myeloma)
Assay: Bliss excess, mean over the matrix (fraction); higher = more synergy
# Bliss excess values compiled below

{"MOLECULE": "C[C@@H](Oc1cc(-c2cnn(C3CCNCC3)c2)cnc1N)c1c(Cl)ccc(F)c1Cl [Crizotinib] + CC1=C(C(=CC=C1)Cl)NC(=O)C2=CN=C(S2)NC3=CC(=NC(=N3)C)N4CCN(CC4)CCO [Dasatinib] (first compound max 10 µM, 7x7, partner max 2 µM)", "Bliss excess": -0.0102}
{"MOLECULE": "Cc1c2c(nn1C)CSCc1cc(n(C)n1)CSc1cc(c3ccccc3c1)OCCCc1c(C(=O)O)n(C)c3c-2c(Cl)ccc13 [AZD5991] + Cc1cc2ncnn2cc1Nc1ncc2c(n1)n(C1CCOCC1)c(=O)n2C [AZD7648] (first compound max 1 µM, 7x7, partner max 10 µM)", "Bliss excess": 0.0078}
{"MOLECULE": "CN(CCO)CC[C@H](CSc1ccccc1)Nc1ccc(S(=O)(=O)NC(=O)c2ccc(N3CCC([C@@H](O)c4ccccc4-c4ccc(Cl)cc4)CC3)cc2)cc1S(=O)(=O)C(F)(F)F [AZD4320] + C[C@@H](Nc1cc(F)cc(F)c1)c1cc(C(=O)N(C)C)cc2c(=O)cc(N3CCOCC3)oc12 [AZD8186] (first compound max 1 µM, 7x7, partner max 3 µM)", "Bliss excess": -0.0077}

====

Test system: KARPAS-1106P (B-Cell Non-Hodgkin's Lymphoma)
Assay: Bliss excess, mean over the matrix (fraction); higher = more synergy
Recorded Bliss excess by entry
QUANTITY MEASURED: Bliss excess

{"COMPOUND": "C[C@@H]1COCCN1c1cc(C2([S@](C)(=N)=O)CC2)nc(-c2ccnc3[nH]ccc23)n1 [AZD6738] + Nc1ccn([C@@H]2O[C@H](CO)[C@@H](O)C2(F)F)c(=O)n1 [Gemcitabine] (first compound max 10 µM, 7x7, partner max 0.3 µM)", "STUDY TARGET": "KARPAS-1106P (B-Cell Non-Hodgkin's Lymphoma)", "NUMERIC READOUT": 0.0614}
{"COMPOUND": "Cc1c2c(nn1C)CSCc1cc(n(C)n1)CSc1cc(c3ccccc3c1)OCCCc1c(C(=O)O)n(C)c3c-2c(Cl)ccc13 [AZD5991] + C=CCn1c(=O)c2cnc(Nc3ccc(N4CCN(C)CC4)cc3)nc2n1-c1cccc(C(C)(C)O)n1 [AZD1775] (first compound max 1 µM, partner max 1 µM)", "STUDY TARGET": "KARPAS-1106P (B-Cell Non-Hodgkin's Lymphoma)", "NUMERIC READOUT": -0.011}
{"COMPOUND": "N#Cc1cnc(Nc2cc(NC[C@H]3CNCCO3)c(C(F)(F)F)cn2)cn1 [SRA737] + CCc1c2c(nc3ccc(O)cc13)-c1cc3c(c(=O)n1C2)COC(=O)[C@]3(O)CC [SN-38] (first compound max 10 µM, 7x7, partner max 0.3 µM)", "STUDY TARGET": "KARPAS-1106P (B-Cell Non-Hodgkin's Lymphoma)", "NUMERIC READOUT": -0.0918}
{"COMPOUND": "CN(CCO)CC[C@H](CSc1ccccc1)Nc1ccc(S(=O)(=O)NC(=O)c2ccc(N3CCC([C@@H](O)c4ccccc4-c4ccc(Cl)cc4)CC3)cc2)cc1S(=O)(=O)C(F)(F)F [AZD4320] + Cn1cnc2c(F)c(Nc3ccc(Br)cc3Cl)c(C(=O)NOCCO)cc21 [Selumetinib] (first compound max 1 µM, 7x7, partner max 3 µM)", "STUDY TARGET": "KARPAS-1106P (B-Cell Non-Hodgkin's Lymphoma)", "NUMERIC READOUT": -0.0007}
{"COMPOUND": "CN(CCO)CC[C@H](CSc1ccccc1)Nc1ccc(S(=O)(=O)NC(=O)c2ccc(N3CCC([C@@H](O)c4ccccc4-c4ccc(Cl)cc4)CC3)cc2)cc1S(=O)(=O)C(F)(F)F [AZD4320] + CN(C)CCCOc1ccc(-c2ccc3ncc4c(c3c2)n(C2CCOCC2)c(=O)n4C)cn1 [AZD0156] (first compound max 1 µM, 7x7, partner max 1 µM)", "STUDY TARGET": "KARPAS-1106P (B-Cell Non-Hodgkin's Lymphoma)", "NUMERIC READOUT": -0.0055}
{"COMPOUND": "CC(=O)c1c(C)c2cnc(Nc3ccc(N4CCNCC4)cn3)nc2n(C2CCCC2)c1=O [Palbociclib] + Cc1c2c(nn1C)CSCc1cc(n(C)n1)CSc1cc(c3ccccc3c1)OCCCc1c(C(=O)O)n(C)c3c-2c(Cl)ccc13 [AZD5991] (first compound max 10 µM, 7x7, partner max 1 µM)", "STUDY TARGET": "KARPAS-1106P (B-Cell Non-Hodgkin's Lymphoma)", "NUMERIC READOUT": -0.0645}
{"COMPOUND": "COc1cccc(OCCCN)c1-c1cc(Nc2cnc(C#N)cn2)n[nH]1 [Prexasertib] + CN(C)CCCOc1ccc(-c2ccc3ncc4c(c3c2)n(C2CCOCC2)c(=O)n4C)cn1 [AZD0156] (first compound max 1 µM, 7x7, partner max 1 µM)", "STUDY TARGET": "KARPAS-1106P (B-Cell Non-Hodgkin's Lymphoma)", "NUMERIC READOUT": -0.0308}
{"COMPOUND": "CC(=O)Nc1cccc(-n2c(=O)n(C3CC3)c(=O)c3c(Nc4ccc(I)cc4F)n(C)c(=O)c(C)c32)c1 [Trametinib] + Cc1nc(-c2cn3c(n2)-c2ccc(-c4cnn(C(C)(C)C(N)=O)c4)cc2OCC3)n(C(C)C)n1 [Taselisib] (first compound max 1 µM, 7x7, partner max 10 µM)", "STUDY TARGET": "KARPAS-1106P (B-Cell Non-Hodgkin's Lymphoma)", "NUMERIC READOUT": 0.088}

====

Tested on: SW780 (Bladder Carcinoma)
Experiment: Bliss excess, mean over the matrix (fraction); higher = more synergy
Each record here notes measured Bliss excess.
QUANTITY MEASURED: Bliss excess

{"COMPOUND": "COc1cccc(OCCCN)c1-c1cc(Nc2cnc(C#N)cn2)n[nH]1 [Prexasertib] + CN(C)CCCOc1ccc(-c2ccc3ncc4c(c3c2)n(C2CCOCC2)c(=O)n4C)cn1 [AZD0156] (first compound max 1 µM, 7x7, partner max 1 µM)", "NUMERIC READOUT": -0.0232}
{"COMPOUND": "CC(=O)c1c(C)c2cnc(Nc3ccc(N4CCNCC4)cn3)nc2n(C2CCCC2)c1=O [Palbociclib] + CC1(C)CCC(CN2CCN(c3ccc(C(=O)NS(=O)(=O)c4ccc(NCC5CCOCC5)c([N+](=O)[O-])c4)c(Oc4cnc5[nH]ccc5c4)c3)CC2)=C(c2ccc(Cl)cc2)C1 [Venetoclax] (first compound max 10 µM, 7x7, partner max 1 µM)", "NUMERIC READOUT": -0.0395}
{"COMPOUND": "CN(CCO)CC[C@H](CSc1ccccc1)Nc1ccc(S(=O)(=O)NC(=O)c2ccc(N3CCC([C@@H](O)c4ccccc4-c4ccc(Cl)cc4)CC3)cc2)cc1S(=O)(=O)C(F)(F)F [AZD4320] + Cc1cc2ncnn2cc1Nc1ncc2c(n1)n(C1CCOCC1)c(=O)n2C [AZD7648] (first compound max 1 µM, 7x7, partner max 10 µM)", "NUMERIC READOUT": -0.0578}
{"COMPOUND": "CC1(C)CCC(CN2CCN(c3ccc(C(=O)NS(=O)(=O)c4ccc(NCC5CCOCC5)c([N+](=O)[O-])c4)c(Oc4cnc5[nH]ccc5c4)c3)CC2)=C(c2ccc(Cl)cc2)C1 [Venetoclax] + COc1cc(Nc2ncc3c(n2)-c2ccc(Cl)cc2C(c2c(F)cccc2OC)=NC3)ccc1C(=O)O [Alisertib] (first compound max 1 µM, 7x7, partner max 10 µM)", "NUMERIC READOUT": -0.0455}
{"COMPOUND": "NC1(C(=O)N[C@@H](CCO)c2ccc(Cl)cc2)CCN(c2ncnc3[nH]ccc23)CC1 [Capivasertib] + C[C@@H]1COCCN1C2=NC(=NC(=C2)C3(CC3)[S@](=N)(=O)C)C4=C5C=CNC5=NC=C4 [AZD6738] (first compound max 10 µM, 7x7, partner max 10 µM)", "NUMERIC READOUT": -0.0216}

====

Test system: NCI-H2595 (Mesothelioma)
Assay: combination Emax (second highest fraction inhibited in the dose matrix, 72 h); higher = more inhibition; extreme values may be limits of the assay

{"MOLECULE": "C[C@@H](Nc1cc(F)cc(F)c1)c1cc(C(=O)N(C)C)cc2c(=O)cc(N3CCOCC3)oc12 [AZD8186] + C1CN(CCC1(C(=O)N[C@@H](CCO)C2=CC=C(C=C2)Cl)N)C3=NC=NC4=C3C=CN4 [AZD5363] (first compound max 10 µM, 7x7, partner max 10 µM)", "combination Emax": 0.24}
{"MOLECULE": "Cc1c2c(nn1C)CSCc1cc(n(C)n1)CSc1cc(c3ccccc3c1)OCCCc1c(C(=O)O)n(C)c3c-2c(Cl)ccc13 [AZD5991] + C=CCn1c(=O)c2cnc(Nc3ccc(N4CCN(C)CC4)cc3)nc2n1-c1cccc(C(C)(C)O)n1 [AZD1775] (first compound max 1 µM, partner max 1 µM)", "combination Emax": 0.282}
{"MOLECULE": "NC1(C(=O)N[C@@H](CCO)c2ccc(Cl)cc2)CCN(c2ncnc3[nH]ccc23)CC1 [Capivasertib] + C[C@@H]1COCCN1C2=NC(=NC(=C2)C3(CC3)[S@](=N)(=O)C)C4=C5C=CNC5=NC=C4 [AZD6738] (first compound max 10 µM, 7x7, partner max 10 µM)", "combination Emax": 0.29}
{"MOLECULE": "CN(CCO)CC[C@H](CSc1ccccc1)Nc1ccc(S(=O)(=O)NC(=O)c2ccc(N3CCC([C@@H](O)c4ccccc4-c4ccc(Cl)cc4)CC3)cc2)cc1S(=O)(=O)C(F)(F)F [AZD4320] + C[C@@H](Nc1cc(F)cc(F)c1)c1cc(C(=O)N(C)C)cc2c(=O)cc(N3CCOCC3)oc12 [AZD8186] (first compound max 1 µM, 7x7, partner max 3 µM)", "combination Emax": 0.271}
{"MOLECULE": "C[C@@H](Oc1cc(-c2cnn(C3CCNCC3)c2)cnc1N)c1c(Cl)ccc(F)c1Cl [Crizotinib] + CC1=C(C(=CC=C1)Cl)NC(=O)C2=CN=C(S2)NC3=CC(=NC(=N3)C)N4CCN(CC4)CCO [Dasatinib] (first compound max 10 µM, 7x7, partner max 2 µM)", "combination Emax": 0.628}
{"MOLECULE": "COc1nnc2ccc(N3CCC(c4ccc(OCCN5CCN(C)C(=O)[C@H]5C)cc4)CC3)nn12 [AZD5153] + C[C@@H]1COCCN1C2=NC(=NC(=C2)C3(CC3)[S@](=N)(=O)C)C4=C5C=CNC5=NC=C4 [AZD6738] (first compound max 1 µM, 7x7, partner max 10 µM)", "combination Emax": 0.461}
{"MOLECULE": "C[C@@H]1COCCN1c1cc(C2([S@](C)(=N)=O)CC2)nc(-c2ccnc3[nH]ccc23)n1 [AZD6738] + O=C(c1cc(Cc2n[nH]c(=O)c3ccccc23)ccc1F)N1CCN(C(=O)C2CC2)CC1 [Olaparib] (first compound max 10 µM, 7x7, partner max 10 µM)", "combination Emax": 0.214}
